# ASSAY TARGET: cdk4/cyclin D1 (Homo sapiens, UniProt P11802)
# Sequence (P11802 whole entry): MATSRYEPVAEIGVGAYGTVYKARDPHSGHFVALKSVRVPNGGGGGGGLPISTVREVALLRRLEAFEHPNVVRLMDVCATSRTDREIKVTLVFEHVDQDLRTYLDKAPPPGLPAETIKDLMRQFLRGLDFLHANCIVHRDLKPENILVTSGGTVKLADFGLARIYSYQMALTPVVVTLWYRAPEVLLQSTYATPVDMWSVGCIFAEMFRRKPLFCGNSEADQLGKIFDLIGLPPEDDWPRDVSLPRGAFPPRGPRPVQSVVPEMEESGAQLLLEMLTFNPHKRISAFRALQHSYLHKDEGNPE
# Sequence (P24385 whole entry partner): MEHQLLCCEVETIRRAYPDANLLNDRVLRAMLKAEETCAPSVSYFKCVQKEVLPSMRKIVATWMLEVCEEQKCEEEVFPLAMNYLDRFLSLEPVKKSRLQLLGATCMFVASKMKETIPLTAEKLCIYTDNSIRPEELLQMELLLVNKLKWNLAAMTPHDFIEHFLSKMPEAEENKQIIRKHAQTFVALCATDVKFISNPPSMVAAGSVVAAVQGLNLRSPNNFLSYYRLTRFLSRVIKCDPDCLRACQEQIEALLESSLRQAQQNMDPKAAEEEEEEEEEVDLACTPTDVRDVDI
# PROCEDURE SUMMARY: Cyclin-dependent kinase assay, cdk4/cyclin D1
# Assay type: biochemical
# TEST CONTEXT: cyclin D1/cdk4; GST-pRb substrate, 10 µM ATP
Structures can show the parent of a compound that is named as a salt.
QUANTITY: log10(IC50) (log10 of the value in nM)
Could you please treat all values as log10 of IC50 in nM?

## Task // returns reported log10(IC50) for input N[C@H]1CC[C@H](Nc2nc(NC3CCN(C(=O)OCc4ccc([N+](=O)[O-])cc4)CC3)c3ncn(C4CCCC4)c3n2)CC1 [compound 94, dihydrochloride]
## Result 2.92

## Task // returns reported log10(IC50) for input Cl.Cl.N[C@H]1CC[C@H](Nc2nc(NC3CCN(C(=O)c4cccc(C(F)(F)F)c4F)CC3)c3ncn(C4CCCC4)c3n2)CC1 [compound 12, dihydrochloride]
## Result 2.79

## Task // returns reported log10(IC50) for input CCOc1ccc(NC(=O)N2CCC(Nc3nc(N[C@H]4CC[C@H](N)CC4)nc4c3ncn4C3CCCC3)CC2)cc1 [compound 191, dihydrochloride]
## Result 2.47

## Task // returns reported log10(IC50) for input N[C@H]1CC[C@H](Nc2nc(NC3CCN(C(=O)c4ccccc4Br)CC3)c3ncn(C4CCCC4)c3n2)CC1
## Result 2.57

## Task // returns reported log10(IC50) for input CCS(=O)(=O)N1CCC(Nc2nc(N[C@H]3CC[C@H](N)CC3)nc3c2ncn3C2CCCC2)CC1 [compound 139, dihydrochloride]
## Result 1.81

## Task // returns reported log10(IC50) for input COc1ccc(S(=O)(=O)N2CCC(Nc3nc(N[C@H]4CC[C@H](N)CC4)nc4c3ncn4C3CCCC3)CC2)cc1OC [compound 137, dihydrochloride]
## Result 2.16

## Task // returns reported log10(IC50) for input N[C@H]1CC[C@H](Nc2nc(NC3CCN(C(=O)c4cnc5ccccc5n4)CC3)c3ncn(C4CCCC4)c3n2)CC1 [compound 4, dihydrochloride]
## Result 2.81

## Task // returns reported log10(IC50) for input N[C@H]1CC[C@H](Nc2nc(NC3CCN(C(=O)Nc4ccc(F)cc4)CC3)c3ncn(C4CCCC4)c3n2)CC1 [compound 147, dihydrochloride]
## Result 2.41

## Task // returns reported log10(IC50) for input N[C@H]1CC[C@H](Nc2nc(NC3CCN(C(=O)Nc4cc(Cl)cc(Cl)c4)CC3)c3ncn(C4CCCC4)c3n2)CC1 [compound 182, dihydrochloride]
## Result 2.48

## Task // returns reported log10(IC50) for input Cc1noc(C)c1S(=O)(=O)N1CCC(Nc2nc(N[C@H]3CC[C@H](N)CC3)nc3c2ncn3C2CCCC2)CC1 [compound 110, dihydrochloride]
## Result 2.20

## Task // returns reported log10(IC50) for input Cc1ccc(NC(=O)N2CCC(Nc3nc(N[C@H]4CC[C@H](N)CC4)nc4c3ncn4C3CCCC3)CC2)cc1 [compound 183, dihydrochloride]
## Result 2.53

## Task // returns reported log10(IC50) for input N[C@H]1CC[C@H](Nc2nc(NC3CCN(C(=O)Nc4ccc(Cl)cc4)CC3)c3ncn(C4CCCC4)c3n2)CC1 [compound 150, dihydrochloride]
## Result 1.96

---

Provide the reported AUC(0-inf) of each item.
# PROCEDURE SUMMARY: in vivo
# TEST CONTEXT: male, Hsd:ICR (CD-1), mouse, plasma, iv, 3 mg/kg
Write the value in ng·h/mL as a bare number.

## Task // returns reported AUC(0-inf) for input Cl.Cl.N[C@H]1CC[C@H](Nc2nc(NC3CCN(C(=O)Nc4ccc(C(F)(F)F)cc4)CC3)c3ncn(C4CCCC4)c3n2)CC1 [compound 149]
## Result 1020

## Task // returns reported AUC(0-inf) for input Cl.Cl.N[C@H]1CC[C@H](Nc2nc(NC3CCN(C(=O)Oc4ccc([N+](=O)[O-])cc4)CC3)c3ncn(C4CCCC4)c3n2)CC1 [compound 89]
## Result 366

## Task // returns reported AUC(0-inf) for input COC(=O)c1ccccc1S(=O)(=O)N1CCC(Nc2nc(N[C@H]3CC[C@H](N)CC3)nc3c2ncn3C2CCCC2)CC1.Cl.Cl [compound 111]
## Result 1460

## Task // returns reported AUC(0-inf) for input Cl.Cl.N[C@H]1CC[C@H](Nc2nc(NC3CCN(C(=O)Oc4ccc(F)cc4)CC3)c3ncn(C4CCCC4)c3n2)CC1 [compound 87]
## Result 513

## Task // returns reported AUC(0-inf) for input Cc1ccc(OC(=O)N2CCC(Nc3nc(N[C@H]4CC[C@H](N)CC4)nc4c3ncn4C3CCCC3)CC2)cc1.Cl.Cl [compound 82]
## Result 944

## Task // returns reported AUC(0-inf) for input COC(=O)c1ccc(OC(=O)N2CCC(Nc3nc(N[C@H]4CC[C@H](N)CC4)nc4c3ncn4C3CCCC3)CC2)cc1.Cl.Cl [compound 83]
## Result 449

## Task // returns reported AUC(0-inf) for input Cl.Cl.N[C@H]1CC[C@H](Nc2nc(NC3CCN(S(=O)(=O)c4cccc(C(F)(F)F)c4)CC3)c3ncn(C4CCCC4)c3n2)CC1 [compound 112]
## Result 1460

## Task // returns reported AUC(0-inf) for input COc1ccc(OC(=O)N2CCC(Nc3nc(N[C@H]4CC[C@H](N)CC4)nc4c3ncn4C3CCCC3)CC2)cc1.Cl.Cl [compound 84]
## Result 965

## Task // returns reported AUC(0-inf) for input Cl.Cl.N[C@H]1CC[C@H](Nc2nc(NC3CCN(C(=O)c4cccc(C(F)(F)F)c4F)CC3)c3ncn(C4CCCC4)c3n2)CC1 [compound 12]
## Result 2550

---

# ASSAY TARGET: cdk1/cyclin B (Homo sapiens, UniProt P06493)
# Sequence (P06493 whole entry): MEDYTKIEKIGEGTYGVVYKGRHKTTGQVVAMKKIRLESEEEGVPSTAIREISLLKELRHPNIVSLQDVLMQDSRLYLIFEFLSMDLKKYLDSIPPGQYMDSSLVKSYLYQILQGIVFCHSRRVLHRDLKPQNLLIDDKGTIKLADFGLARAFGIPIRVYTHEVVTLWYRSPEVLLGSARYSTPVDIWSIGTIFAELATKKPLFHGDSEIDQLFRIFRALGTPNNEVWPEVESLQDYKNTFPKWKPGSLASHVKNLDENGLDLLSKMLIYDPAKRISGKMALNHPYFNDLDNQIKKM
# Sequence (P14635 whole entry partner): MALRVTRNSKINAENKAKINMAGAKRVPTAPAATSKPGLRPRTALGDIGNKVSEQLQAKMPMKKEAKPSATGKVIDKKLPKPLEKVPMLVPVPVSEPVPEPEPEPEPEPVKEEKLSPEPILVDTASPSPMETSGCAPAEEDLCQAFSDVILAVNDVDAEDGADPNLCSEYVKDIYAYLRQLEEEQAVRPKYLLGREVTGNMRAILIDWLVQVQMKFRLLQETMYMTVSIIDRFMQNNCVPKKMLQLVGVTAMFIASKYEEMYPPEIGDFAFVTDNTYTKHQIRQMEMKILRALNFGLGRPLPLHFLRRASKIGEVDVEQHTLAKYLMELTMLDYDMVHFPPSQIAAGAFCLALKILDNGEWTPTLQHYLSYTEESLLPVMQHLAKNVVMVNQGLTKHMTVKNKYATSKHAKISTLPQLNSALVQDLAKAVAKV
# PROCEDURE SUMMARY: Cyclin-dependent kinase assay, cdk1/cyclin B
# TEST CONTEXT: CDK1 IC50, nM, Histone H1, 10 µM ATP
Structures can show the parent of a compound that is named as a salt.
QUANTITY: IC50 (nM)
Write the value in nM as a bare number.

## Task IC50 of N[C@H]1CC[C@H](Nc2nc(NC3CCN(C(=O)c4cc(C(F)(F)F)ccc4F)CC3)c3ncn(C4CCCC4)c3n2)CC1 on cdk1/cyclin B (Homo sapiens, UniProt P06493)?
## Result 48

## Task IC50 of N[C@H]1CC[C@H](Nc2nc(NC3CCN(C(=O)c4cccc(Cl)c4)CC3)c3ncn(C4CCCC4)c3n2)CC1 [compound 6, dihydrochloride] on cdk1/cyclin B (Homo sapiens, UniProt P06493)?
## Result 160

## Task IC50 of CCNC(=O)N1CCC(Nc2nc(N[C@H]3CC[C@H](N)CC3)nc3c2ncn3C2CCCC2)CC1 [compound 148, dihydrochloride] on cdk1/cyclin B (Homo sapiens, UniProt P06493)?
## Result 197

## Task IC50 of CCCCCCCOc1ccc(C(=O)N2CCC(Nc3nc(N[C@H]4CC[C@H](N)CC4)nc4c3ncn4C3CCCC3)CC2)cc1 on cdk1/cyclin B (Homo sapiens, UniProt P06493)?
## Result 62

## Task IC50 of N[C@H]1CC[C@H](Nc2nc(NC3CCN(S(=O)(=O)c4cc(Cl)cc(Cl)c4O)CC3)c3ncn(C4CCCC4)c3n2)CC1 [compound 117, dihydrochloride] on cdk1/cyclin B (Homo sapiens, UniProt P06493)?
## Result 290

## Task IC50 of N[C@H]1CC[C@H](Nc2nc(NC3CCN(C(=O)NC4CC4c4ccccc4)CC3)c3ncn(C4CCCC4)c3n2)CC1 (mixture of isomers) [compound 156, dihydrochloride] on cdk1/cyclin B (Homo sapiens, UniProt P06493)?
## Result 75

---

# System: Colo-205
# PROCEDURE SUMMARY: In vitro proliferation assay (MTT), Colo-205
# Type: cell-based
# TEST CONTEXT: Homo sapiens, COLO 205; MTT assay; value (SD, n) where given; read-out: Colo-205 Colon (IC50 µM)
Where a name gives a salt, the structure may show the parent alone.
QUANTITY: IC50 (µM)
Write the value in µM as a bare number.

## Task // returns reported IC50 for input COC(=O)c1ccccc1NC(=O)N1CCC(Nc2nc(N[C@H]3CC[C@H](N)CC3)nc3c2ncn3C2CCCC2)CC1 [compound 193, dihydrochloride]
## Result 0.18

## Task // returns reported IC50 for input Cc1ccc(NC(=O)N2CCC(Nc3nc(N[C@H]4CC[C@H](N)CC4)nc4c3ncn4C3CCCC3)CC2)cc1 [compound 183, dihydrochloride]
## Result 0.05

## Task // returns reported IC50 for input Cl.Cl.N#Cc1ccc(S(=O)(=O)N2CCC(Nc3nc(N[C@H]4CC[C@H](N)CC4)nc4c3ncn4C3CCCC3)CC2)cc1 [compound 109, dihydrochloride]
## Result 0.18
